This collection of values is drawn from ChEMBL document CHEMBL4304797.

ASSAY_COMMENT: Volume of distribution at steady state in Sprague-Dawley rat at 1 mg/kg, iv measured after 24 hrs by HPLC-MS/MS analysis
Type: ADME, organism-based
RECORDED_CONDITIONS: in vivo, read-out: Vdss
MEASURE_NAME: Vd (L/kg)

A selection of reference data follows.
MOLECULE: N#Cc1ccc2ncn(C[C@H]3CCC[C@]4(C3)CN(c3ccc(F)cc3)C(=O)O4)c2c1 (racemic)
Vd (L/kg): 4

MOLECULE: CC(C)(C)CN1C[C@@]2(CCC[C@H](C(C)(C)n3cnc4ccc(C#N)cc43)C2)OC1=O (racemic)
Vd (L/kg): 1.1

MOLECULE: CC(C)(O)c1cnc(N2C[C@@]3(CCC[C@](C)(Cn4cnc5ccc(C#N)cc54)C3)OC2=O)cn1 [GSK2798745]
Vd (L/kg): 1.9

MOLECULE: CCOc1cnc(N2C[C@@]3(CCC[C@](C)(Cn4cnc5ccc(C#N)cc54)C3)OC2=O)cn1
Vd (L/kg): 5.4

MOLECULE: CC(C)(C)CN1C[C@@]2(CCC[C@](C)(Cn3cnc4ccc(C#N)cc43)C2)OC1=O
Vd (L/kg): 2.1

MOLECULE: C[C@]1(Cn2cnc3ccc(C#N)cc32)CCC[C@@]2(CN(c3ccc(F)cc3)C(=O)O2)C1
Vd (L/kg): 6.5

MOLECULE: COc1ccccc1N1C[C@@]2(CCC[C@](C)(Cn3cnc4ccc(C#N)cc43)C2)OC1=O
Vd (L/kg): 1.4

MOLECULE: CC(C)(C)N1C[C@@]2(CCC[C@H](Cn3cnc4ccc(C#N)cc43)C2)OC1=O (racemic)
Vd (L/kg): 1.8

a = CCOc1ccc(N2C[C@@]3(CCC[C@](C)(Cn4cnc5ccc(C#N)cc54)C3)OC2=O)cc1
b = CC(C)(C)CN1C[C@@]2(CCC[C@H](Cn3cnc4ccc(C#N)cc43)C2)OC1=O
Quick check, higher Vd between a and b ? Answer by quoting the chosen item's label.
a

====

ASSAY_COMMENT: Mean residence time in Sprague-Dawley rat at 1 mg/kg, iv measured after 24 hrs by HPLC-MS/MS analysis
Type: ADME, organism-based
RECORDED_CONDITIONS: in vivo
MEASURE_NAME: MRT (h)

COMPOUND: C[C@]1(Cn2cnc3ccc(C#N)cc32)CCC[C@@]2(CN(c3ccc(F)cc3)C(=O)O2)C1
DISPLAY_UNIT: h
VALUE_OBSERVED: 2.8

COMPOUND: CC(C)(C)CN1C[C@@]2(CCC[C@H](C(C)(C)n3cnc4ccc(C#N)cc43)C2)OC1=O (racemic)
DISPLAY_UNIT: h
VALUE_OBSERVED: 0.3

COMPOUND: CCOc1ccc(N2C[C@@]3(CCC[C@](C)(Cn4cnc5ccc(C#N)cc54)C3)OC2=O)cn1
DISPLAY_UNIT: h
VALUE_OBSERVED: 1.6

COMPOUND: CCOc1ccc(N2C[C@@]3(CCC[C@](C)(Cn4cnc5ccc(C#N)cc54)C3)OC2=O)nn1
DISPLAY_UNIT: h
VALUE_OBSERVED: 1.9

COMPOUND: CC(C)(O)c1cnc(N2C[C@@]3(CCC[C@](C)(Cn4cnc5ccc(C#N)cc54)C3)OC2=O)cn1 [GSK2798745]
DISPLAY_UNIT: h
VALUE_OBSERVED: 4.9

a = CCOc1cnc(N2C[C@@]3(CCC[C@](C)(Cn4cnc5ccc(C#N)cc54)C3)OC2=O)cn1
b = CC(C)(C)N1C[C@@]2(CCC[C@H](Cn3cnc4ccc(C#N)cc43)C2)OC1=O (racemic)
Lab log: flag the item ( a or b ) with the smaller MRT figure. Answer by quoting the chosen item's label.
b
(b: 0.5 h, a: 5.2 h)
